Cited source for all entries: patent US20210380702A1

# Experimental system: T1, recombinant cynomolgus monkey PD-L1 with a C-terminal mouse IgG2a Fc tag (cynomolgus monkey (Macaca fascicularis))
# T1 construct: also called MfPD-L1-mFc; monkey PD-L1-mFc
# T1 sequence (chain, as listed by the source limits assumed): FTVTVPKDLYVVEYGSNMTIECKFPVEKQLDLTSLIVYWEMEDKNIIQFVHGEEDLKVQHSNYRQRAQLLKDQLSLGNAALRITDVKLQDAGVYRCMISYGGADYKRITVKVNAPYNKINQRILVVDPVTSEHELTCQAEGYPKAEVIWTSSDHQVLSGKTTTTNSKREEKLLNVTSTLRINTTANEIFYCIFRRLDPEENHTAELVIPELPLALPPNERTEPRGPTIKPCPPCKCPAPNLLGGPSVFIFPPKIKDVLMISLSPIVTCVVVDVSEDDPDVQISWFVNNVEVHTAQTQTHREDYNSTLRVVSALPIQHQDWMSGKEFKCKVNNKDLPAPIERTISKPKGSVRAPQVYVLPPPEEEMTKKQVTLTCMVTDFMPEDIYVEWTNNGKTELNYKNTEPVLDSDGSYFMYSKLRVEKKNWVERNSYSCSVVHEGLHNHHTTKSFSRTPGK
# Assay name: SPR (Biacore), mAb captured, 25C
Measured metric: kon (M⁻¹ s⁻¹)
Quick note: give the figure in M⁻¹ s⁻¹, leave out the unit.

Name the recorded kon of the item H1H9336P (antibody, human IgG1, V domains shown) VH: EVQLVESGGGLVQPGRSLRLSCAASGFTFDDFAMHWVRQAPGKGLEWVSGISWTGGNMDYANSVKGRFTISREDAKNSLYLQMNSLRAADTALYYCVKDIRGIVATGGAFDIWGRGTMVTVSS VL: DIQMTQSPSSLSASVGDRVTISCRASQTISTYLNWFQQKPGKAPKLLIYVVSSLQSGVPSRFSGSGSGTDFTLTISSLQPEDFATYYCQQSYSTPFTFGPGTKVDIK in your answer.
990000
